Each recorded value in this set is attributed to paper PMC10278182.

Attribute: Kd
- tgt: WD40 repeat protein 5 truncation mutant lacking residues 1-22 (WDR5ΔN) (UniProt P61964 23-334)
- assay-comment: BLI; ND-BLI: biotinylated nanodiscs (15 nM) with reconstituted nanopores loaded on streptavidin (SAX) sensors; WDR5 in solution, 1 to 18 μM; 300 mM KCl, 20 mM Tris-HCl, 1 mg/mL BSA, 1 mM TCEP, pH 7.5; 24 °C; empty nanodiscs as reference
- condition-details: both partners purified
Response body: numeric value in µM, unit text excluded.

Known Kd results, listed for orientation:
> print(dat)
                                     binder  test.result
1  MGDRGPEFELGTMLNPHGAARAEVYLRGGSGGS (other) [O(GGS)2 nanopore sensor (adaptor O - MLL4Win - (GGS)2 tether - tFhuA)]         0.25
2  MGDRGPEFELGTMLNPHGAARAEVYLRPAPAPA (other) [O(PA)3 nanopore sensor (adaptor O - MLL4Win - (PA)3 tether - tFhuA)]         3.01

Consider the additional binder presented here.
// Kd value for MLNPHGAARAEVYLRGGSGGS (other) [(GGS)2 nanopore sensor without the peptide adaptor (MLL4Win - (GGS)2 tether - tFhuA)] : 0.26
